Test: APR_HepG2_MitoMembPot_1hr: Apredica 1-hour HepG2 Assay for Mitochondrial Membrane Potential (AID 2282675)
Settings: imaging, actives raise or lower the signal
Calls of active or inactive are those of the source. Rule for the calls: active = hit-call score of the fitted dose curve at least 0.9, where 1 is the maximum; inactive = score below 0.9.
measured_property: outcome

// solved cases for outcome follow
{"compound": "CSc1nc(NC(C)C)nc(NC(C)C)n1", "measured_property": "outcome", "result": "inactive"}
{"compound": "COP(=O)(OC)OC(Br)C(Cl)(Cl)Br (configuration not stated)", "measured_property": "outcome", "result": "inactive"}
{"compound": "CSC1=N[C@@](C)(c2ccccc2)C(=O)N1Nc1ccccc1", "measured_property": "outcome", "result": "inactive"}
{"compound": "CCOP(=S)(OCC)Oc1ccc([N+](=O)[O-])cc1", "measured_property": "outcome", "result": "inactive"}

*Q* Consider the compound shown here: COP(=O)(OC)C(O)C(Cl)(Cl)Cl (configuration not stated) What is its recorded outcome?
*A* inactive

*Q* Same lookup for Nc1nc(N)nc(NC2CC2)n1 , please.
*A* inactive

*Q* Same lookup for CN1COCN(Cc2cnc(Cl)s2)C1=N[N+](=O)[O-] , please.
*A* inactive
